Provide the recorded OD450 for the entries that follow.
molecular target: hemagglutinin (HA) of influenza A/Solomon Islands/3/06 H1N1 (Influenza A virus A/Solomon …); experiment: ELISA, inactivated whole virions coated; transfection supernatant set 2
Give a bare numeral; the unit OD450 is implied.

Exercise: For the binder TCN-527 (5086_C06) (antibody, V domains shown) VH: QVQLQESGPGLVKPSETLSLNCAVSGGSISNYYWSWIRQPPGKGLEWIGYISYNGRPKYNPSLTSRVTISVDTSKDQFSLELRSVTAADTALYYCARETRFGELLSPYDAFEIWGQGTMVTVSS VL: DIQMTQSPSSLSASVGDRVTMTCRASQNIRSYLNWYQQRPGTAPKLLIYAASTLHSGVPSRFSGGGSGTDFTLTINNLQPEDFASYYCQQSYDNPQTFGQGTKVEIK , what OD450 is on record?
Key: 3.69

Exercise: Try TCN-528 (5087_P17) (antibody, V domains shown) VH: QVQLVQSGSEVKKPGASVKVSCKASGYTFTNYDINWIRQAPGQGLEWMGWINPNSGTTGSAQRFQGRVTITVDTSITTVYMELSSLRSDDTAIYYCARGRELLRLQHFLTDSQSERRDCFDPWGQGTLVTVSS VL: DIQMTQSPSSLSASVGDRVTITCRANQDIGIYLNWYQQNPGKVPKLLLHGASSLQGGVPSRFSASGSGTDFTLTIHSLQPEDLATYYCQQSRRLPYTFGQGTRVELK next.
Key: 3.66

Exercise: What do you get for TCN-504 (3251_K17) (antibody, V domains shown) VH: QVQLQESGPGLVKPSETLSLTCAVSGVSISNIDFYWGWIRQPPGKGLEWIGNIYYTGITFYNPSLSSRVAISIDTSKNQFSLTLTSVTAADTAMYYCARHYGDSEAINDAFDIWGQGTMLTVSS VL: EIVMTQSPATLSVSPGERATLSCRASQSVGNSLAWYQQRPGQAPRLLIYGASTRATGIPPRFSGSGSGTEFTLTISSLQTEDFAVYYCQQYINWRPLSFGGGTKVEIK ?
Key: 3.65
